protocol_details: HepG2 cell viability effects, profiling panel, calcein-AM fluorescence, 48 h, basal (AID 1164); also: test concentration not given here
details: higher = more signal
measured_attribute: z-score
No unit in the answer, only the number.

Example results:
>>> quantitative_result("O=C1C2C=CC(C(O)C3CCCCC3)N(Nc3ccccc3F)C2C(=O)N1c1ccccc1 (configuration not stated)")
-0.528
>>> quantitative_result("C=C[C@H](C)[C@@H](OC(=O)Nc1ccc(SC)cc1)c1ccc(OCCO)cc1")
-0.232
>>> quantitative_result("CC(C)[Si](C#Cc1ccccc1)(O[C@H](c1ccccc1)c1cn(Cc2ccccc2)nn1)C(C)C")
-2.13
>>> quantitative_result("COC(=O)[C@@]1(Cc2ccc(F)cc2)[C@H]2c3cc(C(=O)N(C)C)n(Cc4ccc(C(F)(F)F)nc4)c3C[C@H]2CN1C(=O)c1ccccc1")
0.158
>>> quantitative_result("O=C1OCC=C[C@H]2OC34C=CCN(Cn5nnc6ccccc65)C(=O)[C@H]3N(CCO)C(=O)[C@@H]4[C@@H]12 (some centres not stated)")
0.344

// query Provide one value: measured z-score of C=CCN1C(=O)[C@@]2(O[C@@H](CCO)[C@H]([Si](C)(C)c3ccc(OC)cc3)[C@H]2C)c2cc(N3CCCCC3=O)ccc21
// result -4.51

// query Specify reported z-score for the molecule shown: C=CCNC(=O)[C@H]1[C@@H]2C(=O)O[C@@H](c3ccccc3)[C@@H](c3ccccc3)N2[C@@H](c2ccc(O)cc2)[C@]12C(=O)Nc1ccc(C#CCC(C(=O)OC)C(=O)OC)cc12
// result 0.102

====

test_target: Fibroblast growth factor 10 (Homo sapiens) (UniProt O15520)
Sequence (O15520 whole entry, looked up): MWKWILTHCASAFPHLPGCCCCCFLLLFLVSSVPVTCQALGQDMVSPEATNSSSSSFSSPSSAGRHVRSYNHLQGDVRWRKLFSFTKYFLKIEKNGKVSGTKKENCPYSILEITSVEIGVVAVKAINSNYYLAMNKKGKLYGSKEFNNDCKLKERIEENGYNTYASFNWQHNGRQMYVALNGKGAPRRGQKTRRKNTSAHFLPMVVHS
protocol_details: FGF10 binders on small-molecule microarrays, primary screen, biochemical, small-molecule microarray, 635 nm fluorescence (AID 1102)
details: FGF10 binding, fluorescence 635 nm, higher = more signal
Items are presented alongside their recorded composite z-score.

Answered cases to consult:
>>> result("C[C@H]1C2[C@H](Cc3ccccc3)NC(=O)[C@]23C(=O)N[C@@H](Cc2ccccc2)C(=O)N2CCC[C@H]2C(=O)NC/C=C/CC/C=C/C3[C@@H]2O[C@]12C (stereo partly drawn)")
1.38
>>> result("CN1C(=O)C2C=CC(C(O)c3ccc(I)cc3)N(N(c3ccccc3)c3ccccc3)C2C1=O (stereo not drawn)")
-0.841

In the following, a different compound is considered.
// query Give the observed composite z-score of C=CCNC(=O)[C@@H]1[C@H]2C(=O)O[C@H](c3ccccc3)[C@H](c3ccccc3)N2[C@H](c2ccc(O)cc2)[C@@]12C(=O)Nc1ccc(C#CC3=CCCCC3)cc12 for Fibroblast growth factor 10 (Homo sapiens) (UniProt O15520).
// result 1.24

====

Test system: PRMT1 (protein arginine N-methyltransferase 1)
protocol_details: PRMT1 binders on small-molecule microarrays, primary screen, biochemical, small-molecule microarray, 635 nm fluorescence (AID 1088);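 also: binding of Prmt1 protein to compounds spotted on small-molecule microarray slides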
details: small-molecule microarray binding, higher = more signal
measured_attribute: composite z-score
Give your answer as a number; write no unit.

>>> quantitative_result("COc1ccc([Si](C)(C)[C@H]2[C@H](CC(=O)N3CCC[C@H]3CO)O[C@@]3(C(=O)N(C)c4c(Br)cc(C)cc43)[C@@H]2C)cc1")
1.54
>>> quantitative_result("CCCCC(=C=CC[C@H](O)c1ccccc1OCCO)CCO")
0.95
>>> quantitative_result("C=CCC(OC(C)=O)[C@@H]1[C@@H](N(Cc2ccc(-c3ccccc3)cc2)C(=O)Cc2ccc(OC)cc2)c2cc(OCCCO)ccc2N1C(=O)c1ccc2ccccc2c1 (some centres undefined)")
0.238

Turning now to a further compound:
// query Assign composite z-score to the following record: C=CCNC(=O)[C@H]1[C@@H]2C(=O)O[C@@H](c3ccccc3)[C@@H](c3ccccc3)N2[C@@H](c2ccc(OCCO)cc2)[C@]12C(=O)N(C(=O)OCCOC)c1ccc(C#CCNC(N)=O)cc12
// result 1.55

====

test_target: NADPH oxidase 2 (Homo sapiens) (UniProt P04839)
Sequence (P04839 whole entry, looked up): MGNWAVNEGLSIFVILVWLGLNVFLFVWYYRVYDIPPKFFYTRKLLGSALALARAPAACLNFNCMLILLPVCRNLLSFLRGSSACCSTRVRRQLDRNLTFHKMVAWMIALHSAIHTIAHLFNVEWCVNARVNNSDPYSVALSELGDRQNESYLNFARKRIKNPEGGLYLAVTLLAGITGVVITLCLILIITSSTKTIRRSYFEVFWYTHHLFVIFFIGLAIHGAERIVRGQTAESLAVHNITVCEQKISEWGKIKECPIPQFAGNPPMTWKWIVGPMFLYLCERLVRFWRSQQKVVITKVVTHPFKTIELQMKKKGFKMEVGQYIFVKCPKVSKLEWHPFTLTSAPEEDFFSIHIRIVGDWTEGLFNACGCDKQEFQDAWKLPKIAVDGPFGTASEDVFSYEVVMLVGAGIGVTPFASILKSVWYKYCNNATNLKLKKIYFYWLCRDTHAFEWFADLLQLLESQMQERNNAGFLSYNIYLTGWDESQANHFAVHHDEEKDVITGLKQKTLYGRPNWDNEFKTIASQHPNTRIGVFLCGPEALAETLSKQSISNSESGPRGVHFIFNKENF
protocol_details: NOX2-dependent H2O2 signal modulators, primary screen, NOX inhibitor project, cell-based, HEK293-NOX2, PMA-stimulated, Amplex Red fluorescence (AID 1159); also: test concentration not given here
details: 45 min, higher = more signal, called active from +8 up or from −8 down
Label true (1) when z-score >= -0.9; otherwise false (0).

>>> classification("O=C1c2ccccc2[C@](Cc2ccccc2I)(C(=O)NCCN2CCOCC2)[C@H](c2ccc(CO)cc2)N1Cc1ccccc1C(F)(F)F")
"false (0)"
>>> classification("C=CC[C@H](O)c1ccc(O)c2ccccc12")
"false (0)"
>>> classification("O=C1O[C@H](c2ccccc2)[C@H](c2ccccc2)N2[C@H]1[C@@H](C(=O)N1CCN(c3ncccn3)CC1)[C@]1(C(=O)Nc3ccc(C#CC4(O)CCCCCC4)cc31)[C@H]2c1ccc(O)cc1")
"true (1)"
>>> classification("CCCCC=C[C@@H](NC(=O)C(C)(C)C)c1ccccc1")
"true (1)"
>>> classification("CCOC(=O)C1=CCC(c2ccncc2)N(S(=O)(=O)c2ccc(C)cc2)C1 (stereo not given)")
"true (1)"

Continue with the compound presented below.
// query Please check the record COCCCNC(=O)[C@@]1(CCC(=O)OC(C)(C)C)N=C(c2ccc(OCCCO)cc2)O[C@H]1c1ccccc1 and state if its z-score is at or above -0.9.
// result true (1)

====

Below is a list of entries, each paired with its recorded composite z-score value.
protocol_details: COS7 lysate on small-molecule microarray, probe aHis, 635 nm (AID 1123);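 also: z-score combines 667nm fluorescence intensity with signal-to-noise per printed compound spot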
details: COS7 cell lysate, fluorescence, higher = more signal
Give a plain numeric answer without units written out.

The cases that follow already have their composite z-score on record.
>>> quantitative_result("COC(=O)C(CC#Cc1ccc2c(c1)[C@]1(C(=O)N2)[C@H](C(=O)N2CCCCCCC2)[C@H]2C(=O)O[C@H](c3ccccc3)[C@H](c3ccccc3)N2[C@@H]1c1ccc(OCCO)cc1)C(=O)OC")
5.47
>>> quantitative_result("COc1ccc(CCNC(=O)[C@@]2(C)c3ccccc3C(=O)N(Cc3ccc(OC(F)(F)F)cc3)[C@H]2c2ccc(CO)cc2)cc1")
1.37
>>> quantitative_result("COC(=O)[C@@]1(Cc2ccc(F)cc2)[C@H]2c3cc(C(=O)N4CCCC4)n(CCSCCO)c3C[C@H]2CN1C(=O)c1ccccc1")
3.25

// query Identify measured composite z-score associated with CC(C)Cc1ccc(CN2CC[C@@H](NC(=O)c3ccccc3)C2)cc1
// result -0.0414

// query For COCCOC(=O)N1C(=O)[C@@]2(c3cc(C#CC4=CCCCC4)ccc31)[C@H](C(=O)N1CCCCCCC1)[C@H]1C(=O)O[C@H](c3ccccc3)[C@H](c3ccccc3)N1[C@@H]2c1ccccc1OCCO , write its composite z-score.
// result 1.58

// query Please give measured composite z-score of the following entry: CC(C)c1ccc(NN2C(C(O)C3CCCCC3)C=CC3C(=O)N(c4ccccc4)C(=O)C32)cc1 (configuration not stated)
// result 1.78

// query Give the reported value of composite z-score for this record: [N-]=[N+]=NCc1ccccc1[C@H]1OC(c2ccc(OCCCO)cc2)=N[C@@]1(Cc1ccccc1N=[N+]=[N-])C(=O)O
// result 1.43

====

Tested on: Sonic hedgehog protein (Shh)
protocol_details: small-molecule binders of Shh protein, primary screen, biochemical, small-molecule microarray, 635/667 nm fluorescence (AID 1151);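 also: Shh protein binding to compounds spotted on small-molecule microarray slides; score combines spot fluorescence intensity with signal-to-noise across triplicate slides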
details: small-molecule microarray binding, 635 nm fluorescence; higher = more signal
Returns satisfied if the recorded composite z-score is greater than or equal to 0.5, and not satisfied otherwise.

>>> classification("Cc1cccc([C@H]2C[C@H]3C(Br)=C[C@@]2(CO)C(=O)[C@]32CO2)c1")
"not satisfied"

// query Check this compound for composite z-score at or above 0.5: CCCCCCc1nc(-c2ccc(OC)nc2)c(C)c2c1[Si](C(C)C)(C(C)C)OC2
// result not satisfied

// query Textbook exercise: given the entry CC(=O)NCCCC[C@@H]1NC(=O)[C@H]2C[C@@H](C(=O)NCCCCCN)[C@@H](c3ccc(O)cc3)N2C1=O , state whether its composite z-score is greater than or equal to 0.5.
// result satisfied

// query Item C=CCNC(=O)[C@H]1[C@@H]2C(=O)O[C@@H](c3ccccc3)[C@@H](c3ccccc3)N2[C@@H](c2ccc(OCCO)cc2)[C@]12C(=O)N(C(=O)OCCOC)c1ccc(C#CCC(C(=O)OC)C(=O)OC)cc12 with composite z-score of 0.5 or above?
// result satisfied

====

protocol_details: binders of probe aFSTL3 on microarray, primary screen, stem cell growth factor project, biochemical, small-molecule microarray, fluorescence 635/667 (AID 1064);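 also: measures binding of the biotinylated anti-FSTL3 antibody to printed compounds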
details: higher = more signal
Please note: True applies when composite z-score is 0.05 or greater, and False applies otherwise.

Record excerpt, results attached:
>>> classification("C=CC[C@H](OC(=O)Nc1ccc(SC)cc1)c1ccc(O)c(F)c1")
"True"
>>> classification("CCOC(=O)C1=CC[C@@H](c2ccccc2)N(S(=O)(=O)c2ccc(C)cc2)[C@@H]1C#N")
"False"
>>> classification("C=C(COC)C(=O)CC[C@H](OC(C)=O)c1ccc(CO)o1")
"False"
>>> classification("COC(=O)[C@@]1(Cc2ccccc2)[C@H]2c3cc(C(=O)N(C)C)n(Cc4ccc(Cl)c(C(F)(F)F)c4)c3C[C@H]2CN1C(=O)c1ccccc1")
"True"

// query Exam item: decide whether the reported composite z-score for [N-]=[N+]=NCc1ccccc1[C@H]1OC(c2ccc(OCCCO)cc2)=N[C@@]1(Cc1ccccc1N=[N+]=[N-])C(=O)N1CCOCC1 is at least 0.05.
// result True
